# Target under test: MYLK3 (human) (UniProt Q32MK0)
# Sequence (Q32MK0 whole entry, looked up): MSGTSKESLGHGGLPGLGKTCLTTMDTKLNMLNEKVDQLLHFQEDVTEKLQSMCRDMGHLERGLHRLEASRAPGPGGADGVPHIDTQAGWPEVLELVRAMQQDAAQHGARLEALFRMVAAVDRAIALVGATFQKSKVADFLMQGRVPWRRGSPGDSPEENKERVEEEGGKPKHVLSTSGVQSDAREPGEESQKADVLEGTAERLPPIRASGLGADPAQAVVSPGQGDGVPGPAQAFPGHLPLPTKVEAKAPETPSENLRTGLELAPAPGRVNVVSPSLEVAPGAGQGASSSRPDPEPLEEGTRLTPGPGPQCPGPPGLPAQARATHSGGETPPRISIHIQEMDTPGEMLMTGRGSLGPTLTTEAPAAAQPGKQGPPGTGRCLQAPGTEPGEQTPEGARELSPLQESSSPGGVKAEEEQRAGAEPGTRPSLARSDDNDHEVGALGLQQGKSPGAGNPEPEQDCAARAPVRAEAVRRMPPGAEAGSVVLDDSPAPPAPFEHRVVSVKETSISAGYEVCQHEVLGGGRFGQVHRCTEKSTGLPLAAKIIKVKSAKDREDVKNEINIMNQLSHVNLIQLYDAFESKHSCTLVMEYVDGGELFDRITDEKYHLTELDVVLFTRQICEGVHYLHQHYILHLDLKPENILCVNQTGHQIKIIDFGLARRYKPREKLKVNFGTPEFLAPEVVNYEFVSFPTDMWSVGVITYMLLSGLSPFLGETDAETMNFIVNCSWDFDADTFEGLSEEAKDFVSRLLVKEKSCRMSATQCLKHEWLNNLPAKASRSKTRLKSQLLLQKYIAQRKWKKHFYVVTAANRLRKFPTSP
# Protocol notes: KINOMEscan competition binding
# Recorded conditions: compound 10.0 µM
Overview of reported kinase still bound, per cent of control across a group of molecules:
Provide only the numeric value, understood in %.

The molecule listed as "CCN1CCN(Cc2ccc(NC(=O)c3ccc(C)c(/C=C/c4cnc5[nH]ccc5c4OC)c3)cc2C(F)(F)F)CC1" shows kinase still bound, per cent of control equal to 100

We now examine a further molecule.
The molecule listed as "CCOc1cc(N2CCC(O)CC2)ccc1Nc1ncc2c(n1)N(C)c1ccccc1C(=O)N2C" shows kinase still bound, per cent of control equal to 100

====

# Target under test: CAMK2A (human) (UniProt Q9UQM7)
# Sequence (Q9UQM7 whole entry, looked up): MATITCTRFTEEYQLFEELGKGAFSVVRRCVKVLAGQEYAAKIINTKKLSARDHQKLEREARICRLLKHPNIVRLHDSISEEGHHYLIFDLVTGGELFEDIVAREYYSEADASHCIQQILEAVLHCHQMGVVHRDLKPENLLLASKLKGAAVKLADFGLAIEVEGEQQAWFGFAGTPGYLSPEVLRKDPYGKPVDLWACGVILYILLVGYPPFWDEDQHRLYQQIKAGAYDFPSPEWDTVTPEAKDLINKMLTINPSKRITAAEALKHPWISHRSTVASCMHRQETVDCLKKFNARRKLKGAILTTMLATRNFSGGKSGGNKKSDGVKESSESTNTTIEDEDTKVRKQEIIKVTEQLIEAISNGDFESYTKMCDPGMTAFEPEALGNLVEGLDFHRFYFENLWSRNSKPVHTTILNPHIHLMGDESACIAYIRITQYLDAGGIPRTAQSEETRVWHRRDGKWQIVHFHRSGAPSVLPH
# Protocol notes: KINOMEscan competition binding
# Recorded conditions: compound 10.0 µM
Overview of reported kinase still bound, per cent of control across a group of molecules:
Provide only the numeric value, understood in %.

The molecule listed as "CC(=O)c1c(C)c2cnc(Nc3ccc(N4CCNCC4)cn3)nc2n(C2CCCC2)c1=O" shows kinase still bound, per cent of control equal to 3.2

The molecule listed as "CCCS(=O)(=O)Nc1ccc(F)c(C(=O)c2c[nH]c3ncc(Cl)cc23)c1F" shows kinase still bound, per cent of control equal to 84

The molecule listed as "CCc1nc(-c2cccc(C)c2)c(-c2ccnc(NC(=O)c3ccccc3)c2)s1" shows kinase still bound, per cent of control equal to 89

The molecule listed as "C=CC(=O)Nc1ccc(C(=O)c2sc(Nc3ccc(N4CCN(C)CC4)cc3OC)nc2N)cc1" shows kinase still bound, per cent of control equal to 1.2

The molecule listed as "O=c1[nH]c2ccccc2n1C1CCN(Cc2ccc(-c3nc4cc5[nH]cnc5cc4nc3-c3ccccc3)cc2)CC1" shows kinase still bound, per cent of control equal to 98

We now examine a further molecule.
The molecule listed as "COc1cc(N2CCC(C(N)=O)CC2)ccc1Nc1nc(N)c(Cl)c(Nc2ccccc2S(=O)(=O)C(C)C)n1" shows kinase still bound, per cent of control equal to 32

====

# Target under test: FGFR1 (human) (UniProt P11362)
# Sequence (P11362 whole entry, looked up): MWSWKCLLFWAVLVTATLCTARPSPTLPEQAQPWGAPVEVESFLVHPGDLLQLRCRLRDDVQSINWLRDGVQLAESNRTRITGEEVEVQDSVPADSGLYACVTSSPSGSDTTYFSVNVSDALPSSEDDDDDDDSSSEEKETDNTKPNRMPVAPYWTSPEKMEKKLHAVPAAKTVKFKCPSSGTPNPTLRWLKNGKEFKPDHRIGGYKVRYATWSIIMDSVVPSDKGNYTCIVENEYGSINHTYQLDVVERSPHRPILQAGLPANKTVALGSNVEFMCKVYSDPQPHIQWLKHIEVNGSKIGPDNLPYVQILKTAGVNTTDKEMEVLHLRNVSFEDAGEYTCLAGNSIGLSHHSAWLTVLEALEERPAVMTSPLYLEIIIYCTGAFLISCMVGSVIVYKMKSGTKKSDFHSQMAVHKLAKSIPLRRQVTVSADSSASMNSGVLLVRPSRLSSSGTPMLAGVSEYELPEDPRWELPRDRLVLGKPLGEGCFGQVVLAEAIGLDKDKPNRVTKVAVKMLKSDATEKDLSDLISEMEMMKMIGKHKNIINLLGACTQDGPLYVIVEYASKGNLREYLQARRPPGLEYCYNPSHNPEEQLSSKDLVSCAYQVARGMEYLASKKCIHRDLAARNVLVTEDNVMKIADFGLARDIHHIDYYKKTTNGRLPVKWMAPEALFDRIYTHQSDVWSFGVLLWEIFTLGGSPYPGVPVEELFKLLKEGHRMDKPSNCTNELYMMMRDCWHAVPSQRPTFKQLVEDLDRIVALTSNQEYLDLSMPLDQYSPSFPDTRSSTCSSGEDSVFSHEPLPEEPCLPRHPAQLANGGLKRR
# Protocol notes: KINOMEscan competition binding
# Recorded conditions: compound 10.0 µM
Overview of reported kinase still bound, per cent of control across a group of compounds:
Provide only the numeric value, understood in %.

Consider the following illustrative entries.
The compound listed as "COc1cc2c(Nc3ccc(NC(=O)c4ccccc4)cc3)ncnc2cc1OCCCN1CCOCC1" shows kinase still bound, per cent of control equal to 94

The compound listed as "CC(=O)c1c(C)c2cnc(Nc3ccc(N4CCNCC4)cn3)nc2n(C2CCCC2)c1=O" shows kinase still bound, per cent of control equal to 66

---
The compound listed as "O=c1[nH]c2ccccc2n1C1CCN(Cc2ccc(-c3nc4cc5[nH]cnc5cc4nc3-c3ccccc3)cc2)CC1" shows kinase still bound, per cent of control equal to 73

The compound listed as "COc1cc2ncnc(Nc3cccc(Cl)c3)c2cc1OC" shows kinase still bound, per cent of control equal to 87

The compound listed as "CCN1CCN(Cc2ccc(NC(=O)c3ccc(C)c(/C=C/c4cnc5[nH]ccc5c4OC)c3)cc2C(F)(F)F)CC1" shows kinase still bound, per cent of control equal to 0.1

The compound listed as "Cc1cn(-c2cc(C(=O)Nc3ccc(C)c(NC(=O)c4ccno4)c3)cc(C(F)(F)F)c2)cn1" shows kinase still bound, per cent of control equal to 100

====

# Target under test: DCLK1 (human) (UniProt O15075)
# Sequence (O15075 whole entry, looked up): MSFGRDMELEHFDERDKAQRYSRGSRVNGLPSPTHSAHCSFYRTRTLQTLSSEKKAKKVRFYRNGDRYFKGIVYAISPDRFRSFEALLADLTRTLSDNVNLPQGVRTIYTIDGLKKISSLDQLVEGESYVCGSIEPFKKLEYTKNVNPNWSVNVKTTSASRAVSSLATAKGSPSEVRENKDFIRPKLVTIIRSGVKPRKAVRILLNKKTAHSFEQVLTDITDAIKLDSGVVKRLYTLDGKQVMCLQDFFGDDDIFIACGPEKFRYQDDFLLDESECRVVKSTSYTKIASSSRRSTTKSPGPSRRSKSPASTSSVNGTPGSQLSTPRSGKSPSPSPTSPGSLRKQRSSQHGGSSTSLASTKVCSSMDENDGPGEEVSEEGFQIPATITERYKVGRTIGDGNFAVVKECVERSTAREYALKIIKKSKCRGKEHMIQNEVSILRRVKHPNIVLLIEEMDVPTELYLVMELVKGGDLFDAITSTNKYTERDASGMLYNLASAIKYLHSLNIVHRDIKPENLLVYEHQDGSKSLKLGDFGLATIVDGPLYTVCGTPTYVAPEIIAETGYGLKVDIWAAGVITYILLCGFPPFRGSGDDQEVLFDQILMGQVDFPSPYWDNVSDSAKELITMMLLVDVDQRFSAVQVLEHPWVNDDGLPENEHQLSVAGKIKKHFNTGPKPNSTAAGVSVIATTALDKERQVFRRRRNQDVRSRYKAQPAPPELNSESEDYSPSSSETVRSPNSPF
# Protocol notes: KINOMEscan competition binding
# Recorded conditions: compound 10.0 µM
The class of a record is decided solely by its measured kinase still bound, per cent of control; consult bottom (below 50%), middle (50% to below 90%), top (90% or more)

Some solved entries appear below for comparison.
stdin: Each molecule maps to one class by kinase still bound, per cent of control. Which class for COc1cc(C)c(Sc2cnc(NC(=O)c3ccc(CNC(C)C(C)C)cc3)s2)cc1C(=O)N1CCN(C(C)=O)CC1 (stereo not drawn) ?
stdout: bottom

stdin: Each molecule maps to one class by kinase still bound, per cent of control. Which class for "CCCS(=O)(=O)Nc1ccc(F)c(C(=O)c2c[nH]c3ncc(Cl)cc23)c1F" ?
stdout: middle

stdin: Each molecule maps to one class by kinase still bound, per cent of control. Which class for "N#C/C(=C1/Nc2ccccc2S1)c1ccnc(NCCc2cccnc2)n1" ?
stdout: middle

stdin: Each molecule maps to one class by kinase still bound, per cent of control. Which class for "Cc1cn(-c2cc(C(=O)Nc3ccc(C)c(NC(=O)c4ccno4)c3)cc(C(F)(F)F)c2)cn1" ?
stdout: top

stdin: Each molecule maps to one class by kinase still bound, per cent of control. Which class for "COc1ccc(N(C(=O)Oc2cc(C(=O)Nc3cccc(C(F)(F)F)c3)ccc2C)c2ccnc(Nc3ccc(N4CCN(C)CC4)cc3)n2)c(OC)c1" ?
stdout: top

stdin: Each molecule maps to one class by kinase still bound, per cent of control. Which class for "CC(=O)c1c(C)c2cnc(Nc3ccc(N4CCNCC4)cn3)nc2n(C2CCCC2)c1=O" ?
stdout: bottom

stdin: Each molecule maps to one class by kinase still bound, per cent of control. Which class for "CCOc1cc(N2CCC(O)CC2)ccc1Nc1ncc2c(n1)N(C)c1ccccc1C(=O)N2C" ?
stdout: bottom

stdin: Each molecule maps to one class by kinase still bound, per cent of control. Which class for "N#Cc1cc(-c2ccnc(Nc3ccc(-n4cnc(-c5cccnc5)n4)cc3)n2)cc(N2CCOCC2)c1" ?
stdout: top

Read the next record carefully.
stdin: Each molecule maps to one class by kinase still bound, per cent of control. Which class for "COc1cc2c(Nc3ccc(NC(=O)c4ccccc4)cc3)ncnc2cc1OCCCN1CCOCC1" ?
stdout: middle

====

# Target under test: STK17B (human) (UniProt O94768)
# Sequence (O94768 whole entry, looked up): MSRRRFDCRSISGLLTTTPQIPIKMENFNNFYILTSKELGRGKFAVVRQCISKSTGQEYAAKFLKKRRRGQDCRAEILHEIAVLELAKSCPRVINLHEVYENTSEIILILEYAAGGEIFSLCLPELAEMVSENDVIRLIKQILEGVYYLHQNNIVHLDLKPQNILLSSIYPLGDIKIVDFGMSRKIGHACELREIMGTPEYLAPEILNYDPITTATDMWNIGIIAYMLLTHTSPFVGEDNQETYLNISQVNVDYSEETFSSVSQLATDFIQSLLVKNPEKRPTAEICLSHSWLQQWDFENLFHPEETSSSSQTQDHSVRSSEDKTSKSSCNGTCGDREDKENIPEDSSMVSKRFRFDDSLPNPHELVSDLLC
# Protocol notes: KINOMEscan competition binding
# Recorded conditions: compound 10.0 µM
Property measured: kinase still bound, per cent of control (%)
Provide only the numeric value, understood in %.

The molecule listed as "COc1cc2ncnc(Nc3cccc(Cl)c3)c2cc1OC" shows kinase still bound, per cent of control equal to 40

The molecule listed as "CCOc1cc(N2CCC(O)CC2)ccc1Nc1ncc2c(n1)N(C)c1ccccc1C(=O)N2C" shows kinase still bound, per cent of control equal to 100

The molecule listed as "COc1ccc(N(C(=O)Oc2cc(C(=O)Nc3cccc(C(F)(F)F)c3)ccc2C)c2ccnc(Nc3ccc(N4CCN(C)CC4)cc3)n2)c(OC)c1" shows kinase still bound, per cent of control equal to 100

The molecule listed as CC1=C(C(=O)Nc2cc3cn[nH]c3cc2F)C(c2ccc(C(F)(F)F)cc2)CC(=O)N1 (stereo not drawn) shows kinase still bound, per cent of control equal to 100

The molecule listed as "CCCS(=O)(=O)Nc1ccc(F)c(C(=O)c2c[nH]c3ncc(Cl)cc23)c1F" shows kinase still bound, per cent of control equal to 68

---
The molecule listed as "COc1cc(N2CCC(C(N)=O)CC2)ccc1Nc1nc(N)c(Cl)c(Nc2ccccc2S(=O)(=O)C(C)C)n1" shows kinase still bound, per cent of control equal to 100

The molecule listed as "O=c1[nH]c2ccccc2n1C1CCN(Cc2ccc(-c3nc4cc5[nH]cnc5cc4nc3-c3ccccc3)cc2)CC1" shows kinase still bound, per cent of control equal to 89

The molecule listed as "N#C/C(=C1/Nc2ccccc2S1)c1ccnc(NCCc2cccnc2)n1" shows kinase still bound, per cent of control equal to 100

====

# Target under test: UniProt:Q15831
# Sequence (Q15831 whole entry, looked up): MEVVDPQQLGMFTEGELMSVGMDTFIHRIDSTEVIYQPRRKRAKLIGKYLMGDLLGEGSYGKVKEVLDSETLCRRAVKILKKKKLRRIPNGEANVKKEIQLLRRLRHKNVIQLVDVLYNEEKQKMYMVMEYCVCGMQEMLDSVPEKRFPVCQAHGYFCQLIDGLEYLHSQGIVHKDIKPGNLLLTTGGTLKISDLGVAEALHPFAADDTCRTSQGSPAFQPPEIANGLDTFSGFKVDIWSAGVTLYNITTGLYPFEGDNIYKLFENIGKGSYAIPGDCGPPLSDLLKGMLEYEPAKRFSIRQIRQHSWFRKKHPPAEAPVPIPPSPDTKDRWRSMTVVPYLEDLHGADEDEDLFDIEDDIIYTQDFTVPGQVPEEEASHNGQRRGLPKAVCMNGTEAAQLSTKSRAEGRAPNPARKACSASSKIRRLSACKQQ
# Protocol notes: KINOMEscan competition binding
# Recorded conditions: compound 10.0 µM
Lab note: cut-off is 90%. Strictly less in kinase still bound, per cent of control is true (1). Exactly 90% or more is false (0).

Some solved entries appear below for comparison.
stdin: Bench note: check whether "C=CC(=O)Nc1ccc(C(=O)c2sc(Nc3ccc(N4CCN(C)CC4)cc3OC)nc2N)cc1" shows kinase still bound, per cent of control below 90%
stdout: true (1)

stdin: Bench note: check whether "CCc1nc(-c2cccc(C)c2)c(-c2ccnc(NC(=O)c3ccccc3)c2)s1" shows kinase still bound, per cent of control below 90%
stdout: false (0)

stdin: Bench note: check whether "COc1cc2c(Nc3ccc(NC(=O)c4ccccc4)cc3)ncnc2cc1OCCCN1CCOCC1" shows kinase still bound, per cent of control below 90%
stdout: false (0)

stdin: Bench note: check whether "O=c1[nH]c2ccccc2n1C1CCN(Cc2ccc(-c3nc4cc5[nH]cnc5cc4nc3-c3ccccc3)cc2)CC1" shows kinase still bound, per cent of control below 90%
stdout: false (0)

Read the next record carefully.
stdin: Bench note: check whether "CCN1CCN(Cc2ccc(NC(=O)c3ccc(C)c(/C=C/c4cnc5[nH]ccc5c4OC)c3)cc2C(F)(F)F)CC1" shows kinase still bound, per cent of control below 90%
stdout: true (1)

====

Overview of reported kinase still bound, per cent of control across a group of molecules:
# Target under test: PLK1 (human) (UniProt P53350)
# Sequence (P53350 whole entry, looked up): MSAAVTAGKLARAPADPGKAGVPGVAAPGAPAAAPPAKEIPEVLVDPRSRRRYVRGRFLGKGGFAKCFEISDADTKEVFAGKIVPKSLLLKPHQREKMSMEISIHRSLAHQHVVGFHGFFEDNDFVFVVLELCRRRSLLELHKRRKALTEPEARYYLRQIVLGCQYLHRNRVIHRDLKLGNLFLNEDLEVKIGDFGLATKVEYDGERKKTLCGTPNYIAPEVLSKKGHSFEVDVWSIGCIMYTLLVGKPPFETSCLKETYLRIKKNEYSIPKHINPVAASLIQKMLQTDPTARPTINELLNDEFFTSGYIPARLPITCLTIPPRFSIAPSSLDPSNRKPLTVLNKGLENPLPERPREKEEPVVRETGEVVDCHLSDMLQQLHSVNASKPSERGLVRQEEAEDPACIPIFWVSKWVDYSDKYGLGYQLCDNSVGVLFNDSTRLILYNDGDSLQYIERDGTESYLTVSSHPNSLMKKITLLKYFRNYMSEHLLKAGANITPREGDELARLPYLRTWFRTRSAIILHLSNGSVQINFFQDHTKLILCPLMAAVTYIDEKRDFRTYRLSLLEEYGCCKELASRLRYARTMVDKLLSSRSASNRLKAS
# Protocol notes: KINOMEscan competition binding
# Recorded conditions: compound 10.0 µM
Provide only the numeric value, understood in %.

Consider the following illustrative entries.
The molecule listed as "CCOc1cc(N2CCC(O)CC2)ccc1Nc1ncc2c(n1)N(C)c1ccccc1C(=O)N2C" shows kinase still bound, per cent of control equal to 100

The molecule listed as "COc1cc2c(Nc3ccc(NC(=O)c4ccccc4)cc3)ncnc2cc1OCCCN1CCOCC1" shows kinase still bound, per cent of control equal to 100

The molecule listed as "N#C/C(=C1/Nc2ccccc2S1)c1ccnc(NCCc2cccnc2)n1" shows kinase still bound, per cent of control equal to 72

The molecule listed as "CNC(=O)Nc1ccc(-c2nc(N3CC4CCC(C3)O4)c3cnn(C4CCC5(CC4)OCCO5)c3n2)cc1" shows kinase still bound, per cent of control equal to 77

The molecule listed as "CCN(CCO)CCCOc1ccc2c(Nc3cc(CC(=O)Nc4cccc(F)c4)[nH]n3)ncnc2c1" shows kinase still bound, per cent of control equal to 100

The molecule listed as COc1cc(C)c(Sc2cnc(NC(=O)c3ccc(CNC(C)C(C)C)cc3)s2)cc1C(=O)N1CCN(C(C)=O)CC1 (centres undefined) shows kinase still bound, per cent of control equal to 100

---
The molecule listed as "Cc1cn(-c2cc(C(=O)Nc3ccc(C)c(NC(=O)c4ccno4)c3)cc(C(F)(F)F)c2)cn1" shows kinase still bound, per cent of control equal to 100

The molecule listed as "COc1ccc(N(C(=O)Oc2cc(C(=O)Nc3cccc(C(F)(F)F)c3)ccc2C)c2ccnc(Nc3ccc(N4CCN(C)CC4)cc3)n2)c(OC)c1" shows kinase still bound, per cent of control equal to 100

The molecule listed as "C=CC(=O)Nc1ccc(C(=O)c2sc(Nc3ccc(N4CCN(C)CC4)cc3OC)nc2N)cc1" shows kinase still bound, per cent of control equal to 45
